Source listed as ChEMBL document CHEMBL1143065.

experiment_description: Volume of distribution at steady state in Beagle dog at 1 mg/kg, iv
Format: ADME, organism-based, Canis lupus familiaris
Design: dose 1 mg/kg, route intravenous
condition_label: in vivo, read-out: Vdss
parameter_measured: Vd (L/kg)
Write the number in L/kg without appending the unit.

Consider the molecule c1cncc(Nc2ncc(-c3ccncn3)c(-c3ccco3)n2)c1 and give its measured Vd.
1.1

###

target_system: Adenosine receptor A3 (Homo sapiens)
experiment_description: Displacement of […] from human A3 receptor expressed in HeLa cells at 1000 nM
Format: cell-based
Decision: inhibition >= 30% yields 1.0, all other cases yield 0.0.

Does the reported inhibition for COc1ncc(Nc2ncc(-c3ccncn3)c(-c3ccco3)n2)cn1 fall at or above the 30% mark?
1.0

Another molecule to check: O=c1ccc(Nc2ncc(-c3ccncn3)c(-c3ccco3)n2)cn1CC1CC1
0.0

Another molecule to check: c1coc(-c2nc(Nc3cncnc3)ncc2-c2ccncn2)c1
1.0

Another molecule to check: N#Cc1cncc(Nc2ncc(-c3ccncn3)c(-c3ccco3)n2)c1
0.0

Another molecule to check: COc1ccc(Nc2ncc(-c3ccncn3)c(-c3ccco3)n2)cn1
0.0

Another molecule to check: c1cncc(Nc2ncc(-c3ccncn3)c(-c3ccco3)n2)c1
1.0

Another molecule to check: Cn1cc(Nc2ncc(-c3ccncn3)c(-c3ccco3)n2)ccc1=O
0.0

Another molecule to check: O=c1ccc(Nc2ncc(-c3ccncn3)c(-c3ccco3)n2)c[nH]1
0.0

Another molecule to check: [O-][n+]1cccc(Nc2ncc(-c3ccncn3)c(-c3ccco3)n2)c1
1.0

Another molecule to check: c1coc(-c2nc(Nc3cnccn3)ncc2-c2ccncn2)c1
0.0

###

Tested on: Rattus norvegicus
experiment_description: Clearance in Wistar rat at 1 mg/kg, iv
Type: ADME, organism-based
Parameters: dose 1 mg/kg, route intravenous
condition_label: in vivo
parameter_measured: clearance (L/h/kg)
Write the number in L/h/kg without appending the unit.

Consider the compound c1cncc(Nc2ncc(-c3ccncn3)c(-c3ccco3)n2)c1 and give its measured clearance.
1.5

###

experiment_description: Cmax in Beagle dog at 10 mg/kg, po
Assay type: ADME, organism-based, Canis lupus familiaris
Design: dose 10 mg/kg, route oral
condition_label: in vivo
parameter_measured: Cmax

Consider the molecule c1cncc(Nc2ncc(-c3ccncn3)c(-c3ccco3)n2)c1 and give its measured Cmax.
6 µM

###

target_system: Adenosine receptor A2b (Homo sapiens, UniProt P29275)
Sequence (P29275 whole entry): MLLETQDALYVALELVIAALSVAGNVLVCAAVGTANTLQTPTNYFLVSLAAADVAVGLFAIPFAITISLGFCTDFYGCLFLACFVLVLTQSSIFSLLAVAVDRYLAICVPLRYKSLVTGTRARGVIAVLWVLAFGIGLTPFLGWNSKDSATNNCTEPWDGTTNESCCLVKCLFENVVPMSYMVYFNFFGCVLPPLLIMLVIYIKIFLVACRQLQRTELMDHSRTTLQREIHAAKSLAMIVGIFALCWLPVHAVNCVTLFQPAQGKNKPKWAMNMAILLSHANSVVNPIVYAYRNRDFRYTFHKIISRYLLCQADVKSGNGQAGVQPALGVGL
experiment_description: Displacement of [3H]DPCPX from human A2B receptor expressed in HEK293 cells
Format: cell-based
parameter_measured: Ki (nM)
Write the number in nM without appending the unit.

Consider the compound c1coc(-c2nc(Nc3cncnc3)ncc2-c2ccncn2)c1 and give its measured Ki.
24

Another compound to check: COc1ncc(Nc2ncc(-c3ccncn3)c(-c3ccco3)n2)cn1
39

Another compound to check: COc1ccc(Nc2ncc(-c3ccncn3)c(-c3ccco3)n2)cn1
115

Another compound to check: N#Cc1cncc(Nc2ncc(-c3ccncn3)c(-c3ccco3)n2)c1
69

###

experiment_description: Half life in Beagle dog at 1 mg/kg, iv
Format: ADME, organism-based, Canis lupus familiaris
Design: dose 1 mg/kg, route intravenous
condition_label: in vivo
parameter_measured: half-life

Consider the compound c1cncc(Nc2ncc(-c3ccncn3)c(-c3ccco3)n2)c1 and give its measured half-life.
48 min

###

target_system: Adenosine receptor A2b (Mus musculus)
Sequence (Q60614 whole entry): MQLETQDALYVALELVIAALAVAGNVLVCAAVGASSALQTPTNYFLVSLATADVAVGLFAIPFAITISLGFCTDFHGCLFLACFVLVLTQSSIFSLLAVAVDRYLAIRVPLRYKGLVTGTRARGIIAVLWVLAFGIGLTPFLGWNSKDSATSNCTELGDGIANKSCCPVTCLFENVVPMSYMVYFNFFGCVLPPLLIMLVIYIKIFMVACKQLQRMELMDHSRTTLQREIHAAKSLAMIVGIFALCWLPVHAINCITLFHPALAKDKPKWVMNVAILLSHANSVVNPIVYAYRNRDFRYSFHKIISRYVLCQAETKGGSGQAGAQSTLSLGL
experiment_description: Inhibition of NECA-induced IL6 production in Swiss mouse fibroblasts after 24 hrs by ELISA
Type: functional
parameter_measured: pIC50
API: returns pIC50 as number; meaning -log10 of concentration in mol/L.

Consider the molecule c1cncc(Nc2ncc(-c3ccncn3)c(-c3ccco3)n2)c1 and give its measured pIC50.
6.19
